This collection of values is drawn from patent US11618747B2.

# Target Under Test: full length (FL) LXRα (Homo sapiens)
# Construct: the full length (FL) proteins of LXRα (amino acids 1-447); NP005684; expressed in transfected cells; host or cells: HEK293
# Sequence (Q13133 whole entry, the tested form may be a part): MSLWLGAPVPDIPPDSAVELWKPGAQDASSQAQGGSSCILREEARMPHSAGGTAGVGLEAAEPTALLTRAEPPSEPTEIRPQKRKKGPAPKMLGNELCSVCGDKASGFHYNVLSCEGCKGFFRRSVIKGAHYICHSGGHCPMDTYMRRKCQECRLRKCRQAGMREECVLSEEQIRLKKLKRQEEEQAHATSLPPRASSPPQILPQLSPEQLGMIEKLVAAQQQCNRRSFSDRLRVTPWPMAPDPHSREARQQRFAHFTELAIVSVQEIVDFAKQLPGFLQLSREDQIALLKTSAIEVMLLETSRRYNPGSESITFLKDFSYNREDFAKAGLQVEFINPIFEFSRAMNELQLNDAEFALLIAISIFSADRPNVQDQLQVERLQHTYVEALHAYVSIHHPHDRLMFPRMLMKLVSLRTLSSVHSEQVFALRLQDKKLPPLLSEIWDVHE
# Assay Text: LXR Gal4 reporter transient transfection assay (FL-M2H Gal4α)
# Type: cell-based
# Experimental Context: HEK293 cells, full length LXRα; read-out: FL-M2H Gal4α (EC50 range)
# Method: The tested compounds were usually dissolved, tested and stored as 20 mM stock solutions in DMSO. […] LXRα and LXRβ activity status was determined via detection of interaction with coactivator and corepressor proteins in mammalian two-hybrid experiments (M2H). […] Interaction was monitored via activation of a coexpressed Firefly Luciferase Reporter gene under control of a promoter containing repetitive GAL4 response elements (vector pFRLuc; Stratagene). […]
The reader will find reported EC50 values listed item by item below.

Solved entries:
compound="Cc1ccc(S(=O)(=O)n2c(-c3cccc(-n4ccc(C(=O)O)cc4=O)c3)c(-c3ccsc3C#N)c3cc(F)ccc32)cc1 [5/5]" value_observed="0.1 to 1 µM"
compound="COc1c(C(=O)O)ccc(-c2cccc(-c3c(-c4ccsc4C#N)c4cc(F)ccc4n3S(=O)(=O)c3ccc(C)cc3)c2)c1Cl [12/5]" value_observed="< 0.1 µM"
compound="O=C(O)c1ccc(-c2cccc(-c3c(-c4ncccc4C(F)(F)F)c4cc(F)ccc4n3S(=O)(=O)c3ccc(C(F)F)cc3)c2)c(Cl)c1 [11/23]" value_observed="< 0.1 µM"
compound="N#Cc1cccc(C#N)c1-c1c(-c2cccc(-c3c(F)cc(C(=O)O)cc3F)c2)n(S(=O)(=O)c2ccc(C(F)F)cc2)c2ccc(F)cc12 [11/53]" value_observed="< 0.1 µM"
compound="Cc1ccc(S(=O)(=O)n2c(-c3cccc(C4CC5(CC(C(=O)O)C5)C4)c3)c(-c3ccsc3C#N)c3cc(F)ccc32)cc1 (stereo not drawn) [3/65]" value_observed="< 0.1 µM"

Input: I would be grateful if you could share the reported EC50 for O=C(O)c1ccc(-c2cccc(-c3c(-c4c(Cl)cccc4Cl)c4cc(F)ccc4n3S(=O)(=O)c3ccc(C(F)F)cc3)c2)c(Cl)c1 [11/13] .
Output: < 0.1 µM

Input: I would be grateful if you could share the reported EC50 for N#Cc1ccccc1-c1c(-c2cccc(-c3ccc(C(=O)O)cc3F)c2)n(S(=O)(=O)c2ccc(C(F)F)cc2)c2ccc(F)cc12 [11/31] .
Output: < 0.1 µM

* * *

# Target Under Test: LXRβ ligand-binding domain (Homo sapiens, UniProt P55055, DUP175-175)
# Construct: amino acids 156-461; NP009052; made in house; host or cells: E. coli
# Sequence (P55055 with tags, fused parts or gaps DUP175-175 limits assumed): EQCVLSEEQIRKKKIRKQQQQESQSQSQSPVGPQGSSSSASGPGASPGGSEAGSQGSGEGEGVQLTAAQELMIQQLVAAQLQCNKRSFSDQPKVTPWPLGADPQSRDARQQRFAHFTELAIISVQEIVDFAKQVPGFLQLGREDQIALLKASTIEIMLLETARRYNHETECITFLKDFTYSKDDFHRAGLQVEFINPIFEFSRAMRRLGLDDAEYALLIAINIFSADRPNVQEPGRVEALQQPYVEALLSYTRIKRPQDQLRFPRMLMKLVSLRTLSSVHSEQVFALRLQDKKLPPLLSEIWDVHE
# Assay Text: TR-FRETβ activity assay (NCoA3 coactivator peptide recruitment)
# Format: biochemical
# Experimental Context: TR-FRET, 1 μM 24(S)-25-epoxycholesterol prestimulation; read-out: FRETβ (EC50 range)
The reader will find reported EC50 values listed item by item below.

Solved entries:
compound="Cc1ccc(S(=O)(=O)n2c(-c3cccc(/C=C/C(=O)O)c3)c(-c3ccsc3C#N)c3ccccc32)cc1 [3/18]" value_observed="1000 to 10000 nM"
compound="N#Cc1cccc(C#N)c1-c1c(-c2cccc(-c3ccc(C(=O)O)cc3Cl)c2)n(S(=O)(=O)c2ccc(C(F)F)cc2)c2ccc(F)cc12 [11/12]" value_observed="< 100 nM"
compound="N#Cc1ccccc1-c1c(-c2cccc(-c3ccc(C(=O)O)cc3Cl)c2)n(S(=O)(=O)c2ccc(C(F)F)cc2)c2cccnc12 [8/7]" value_observed="100 to 1000 nM"
compound="Cc1ccc(S(=O)(=O)n2c(-c3cccc(-c4ccc(C(=O)O)nc4)c3)c(-c3ccsc3C#N)c3cc(F)ccc32)cc1 [3/47]" value_observed="100 to 1000 nM"

Input: I would be grateful if you could share the reported EC50 for Cc1ccc(S(=O)(=O)n2c(-c3cccc(-c4cccc(C(C)(C)C(=O)O)c4)c3)c(-c3ccsc3C#N)c3ccccc32)cc1 [30/2] .
Output: 1000 to 10000 nM

Input: I would be grateful if you could share the reported EC50 for Cc1ccc(S(=O)(=O)n2c(-c3cccc(-c4cc(C(=O)O)nn4C)c3)c(-c3ccsc3C#N)c3cc(F)ccc32)cc1 [12/7] .
Output: 100 to 1000 nM

Input: I would be grateful if you could share the reported EC50 for Cc1ccc(S(=O)(=O)n2c(-c3cccc(C4(C)CC4C(=O)O)c3)c(-c3ccsc3C#N)c3cc(F)ccc32)cc1 (stereo not shown) [3/1] .
Output: 100 to 1000 nM
